- Test system: B. fragilis
- Measurement protocol: Minimum inhibitory concentration in vitro, B. fragilis
- Assay type: cell-based
- Condition info: Bacteroides fragilis, mean of 3 Strains, read-out: Minimum Inhibitory Concentrations
Give measured MIC for each item. Keep answers brief.
Param answer (str): number followed by unit.

[[record]]
compound = "COc1cc(Cc2cnc(N)nc2N)c2c(C)c(C)oc2c1OC [Compound 1]"
result_value = "25 µg/mL"


Give measured MIC for every item shown.
1. COc1cc(Cc2cnc(N)nc2N)c2c(c1OC)OC(C)C2 (stereo not shown) [Compound 2]
2. COc1cc(Cc2cnc(N)nc2N)c2cc(C)oc2c1OC [Compound 3]
3. COc1cc(Cc2cnc(N)nc2N)cc(OC)c1OC [TMP, reference compound]

1: 6.2 µg/mL; 2: 0.6 µg/mL; 3: 3.1 µg/mL

----------
- Test system: St. agalactiae CN1143
Measured property: MIC
Param answer (str): number followed by unit.

[[record]]
molecule = "COc1cc(Cc2cnc(N)nc2N)c2c(c1OC)OC(C)C2 (stereo not shown) [Compound 2]"
result_value = "0.5 µg/mL"

[[record]]
molecule = "COc1cc(Cc2cnc(N)nc2N)c2c(C)c(C)oc2c1OC [Compound 1]"
result_value = "5 µg/mL"

[[record]]
molecule = "COc1cc(Cc2cnc(N)nc2N)cc(OC)c1OC [TMP, reference compound]"
result_value = "0.5 µg/mL"


We now examine a further molecule.
Which MIC reading was recorded for the molecule COc1cc(Cc2cnc(N)nc2N)c2cc(C)oc2c1OC [Compound 3] ?
0.05 µg/mL
